Molecular target: UniProt:P37288
Sequence (P37288 whole entry): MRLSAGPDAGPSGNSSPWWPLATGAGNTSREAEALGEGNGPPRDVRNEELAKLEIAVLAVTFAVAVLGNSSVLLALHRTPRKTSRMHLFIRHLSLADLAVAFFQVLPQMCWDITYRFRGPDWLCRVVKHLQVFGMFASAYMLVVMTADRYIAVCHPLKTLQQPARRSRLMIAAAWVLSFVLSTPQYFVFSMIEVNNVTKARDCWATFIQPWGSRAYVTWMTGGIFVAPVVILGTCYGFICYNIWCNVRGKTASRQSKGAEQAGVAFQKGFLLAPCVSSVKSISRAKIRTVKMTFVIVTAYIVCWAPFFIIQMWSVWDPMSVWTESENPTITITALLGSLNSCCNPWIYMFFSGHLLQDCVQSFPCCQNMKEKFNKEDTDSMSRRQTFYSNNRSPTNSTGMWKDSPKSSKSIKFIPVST
Experiment: Human vasopression V1a receptor binding assay
Details: hV1a cell line (CHO); Table 18
Output 1 for records whose Ki is lower than 1 nM, 0 for records at or above 1 nM.

Completed entries (count: 4):
O=C(NC1Cc2ccccc2C1)[C@H](CCC(=O)N1CCN(C2CCCCC2)CC1)N1C(=O)[C@@H](N2C(=O)OC[C@@H]2c2ccccc2)[C@H]1/C=C/c1ccccc1 [Example 221P]
0
O=C(NC1CCCc2ccccc21)C(CCC(=O)N1CCN(C2CCCCC2)CC1)N1C(=O)C(N2C(=O)OCC2c2ccccc2)C1C=Cc1ccccc1 (single isomer, unassigned) [Example 214]
0
CN(Cc1cc(Cl)cc(Cl)c1)C(=O)[C@H](CCC(=O)N1CCN(C2CCCCC2)CC1)N1C(=O)[C@@H](N2C(=O)OC[C@@H]2c2ccccc2)[C@H]1/C=C/c1ccccc1 [Example 221E]
0
O=C(NCc1cccc(C(F)(F)F)c1)[C@H](CC(=O)N1CCC(CCN2CCCCC2)CC1)N1C(=O)[C@@H](N2C(=O)OC[C@@H]2c2ccccc2)[C@H]1/C=C/c1ccccc1 [Example 86A]
0

Does C[C@H](NC(=O)[C@H](CCC(=O)N1CCN(C2CCCCC2)CC1)N1C(=O)[C@@H](N2C(=O)OC[C@@H]2c2ccccc2)[C@H]1/C=C/c1ccccc1)c1ccccc1 have Ki strictly under 1 nM? 1
